Overview of recorded CC50 for various compounds
experimental-protocol: in vitro
test-settings: cattle (Bos taurus)

1. N#Cc1ccc(C(=O)Nc2ccc(-n3nnc4cc(Cl)c(Cl)cc43)cc2)cc1 [7h]
> 100 µM

Query string: Which CC50 value belongs to C[C@@]1(O)[C@H](O)[C@@H](CO)O[C@H]1n1cnc2c(=O)[nH]c(N)nc21 [2MG, 2’-C-methyl-guanosine, reference compound] ?
Result string: > 100 µM

Query string: # get_value(readout='CC50', item= O=C(Nc1ccc(-n2nc3cc(Cl)c(Cl)cc3n2)cc1)c1ccc([N+](=O)[O-])cc1 [8e] )
Result string: > 100 µM

Query string: For the compound shown here, CCCC(=O)N(C(=O)CCC)c1ccc(-n2nc3cc(Cl)c(Cl)cc3n2)cc1 [6f] , give the reported CC50.
Result string: 84 µM

Query string: For the compound shown here, CCNC(=O)Nc1ccc(-n2nc3cc(Cl)c(Cl)cc3n2)cc1 [10a] , give the reported CC50.
Result string: > 100 µM

Query string: Consider the compound O=C(Nc1ccc(-n2nc3cc(Cl)c(Cl)cc3n2)cc1)c1ccc(C(F)(F)F)cc1 [8g] and give its measured CC50.
Result string: > 100 µM

Query string: Suppose we examine the compound O=C(Nc1ccc(-n2nnc3cc(Cl)c(Cl)cc32)cc1)c1ccc(C(F)(F)F)cc1 [7g] ; what CC50 value has been reported?
Result string: > 100 µM

Query string: CC50 lookup needed for CCC(=O)N(C(=O)CC)c1ccc(-n2nc3cc(Cl)c(Cl)cc3n2)cc1 [6e] , thanks.
Result string: 72 µM

Query string: Which CC50 is listed for O=C(Nc1ccccc1)Nc1ccc(-n2nc3cc(Cl)c(Cl)cc3n2)cc1 [10e] ?
Result string: > 100 µM

Query string: Which CC50 is reported for this compound? CCCNC(=O)Nc1ccc(-n2nc3cc(Cl)c(Cl)cc3n2)cc1 [10b]
Result string: 78 µM

Query string: Given CCCC(=O)Nc1ccc(-n2nnc3cc(Cl)c(Cl)cc32)cc1 [5c] , state its recorded CC50.
Result string: > 100 µM

Query string: Quick check: CC50 of CC(=O)Nc1ccc(-n2nnc3cc(Cl)c(Cl)cc32)cc1 [5a] ?
Result string: 43 µM

Query string: If you can, please state the reported CC50 value of Cc1ccc(NC(=O)Nc2ccc(-n3nc4cc(Cl)c(Cl)cc4n3)cc2)cc1 [10f] .
Result string: > 100 µM

Query string: Look at this compound and give its reported CC50. Nc1ccc(-n2nnc3cc(Cl)c(Cl)cc32)cc1 [1a]
Result string: > 100 µM

Query string: Find the recorded CC50 belonging to O=C(Nc1ccc(-n2nnc3cc(Cl)c(Cl)cc32)cc1)c1ccc([N+](=O)[O-])cc1 [7e] and report it.
Result string: > 100 µM

Query string: GET /values?readout=CC50&item= O=C(Nc1ccc(F)cc1)Nc1ccc(-n2nc3cc(Cl)c(Cl)cc3n2)cc1 [10i]
Result string: > 100 µM

----------
Test system: RSV
experimental-protocol: microbe, parasite or virus in culture
Assay type: cell-based, Human Respiratory Syncytial Virus (RSV) strain A2
test-settings: human respiratory syncytial virus, Vero 76, read-out: EC50 RSV
recorded-endpoint: EC50 (µM)
# output: bare number, implied unit µM

1. CCCC(=O)Nc1ccc(-n2nnc3cc(Cl)c(Cl)cc32)cc1
4
2. CCC(=O)N(C(=O)CC)c1ccc(-n2nc3cc(Cl)c(Cl)cc3n2)cc1
6
3. COc1cc(C(=O)Nc2ccc(-n3nc4cc(Cl)c(Cl)cc4n3)cc2)cc(OC)c1OC
3

Query string: Need EC50, item COc1cc(C(=O)Nc2ccc(-n3nnc4cc(Cl)c(Cl)cc43)cc2)cc(OC)c1OC
Result string: 5

Query string: Can you share its EC50? I mean this compound: N#Cc1ccc(C(=O)Nc2ccc(-n3nnc4cc(Cl)c(Cl)cc43)cc2)cc1
Result string: 11
